Source: patent US8785452B2

System: Raw264.7 cells
Details: mouse, 5 days, 20 μM
quantity_measured: Primary QIM CellNb
A bare number is all that is needed in reply.

Report Primary QIM CellNb for COc1ccc(/C(C)=N/NC(N)=S)c(OC)c1 please. 67.6

And then CN(C)c1ccc(/C=C2/c3ccccc3-c3ccc(C(=O)CCCCN4CCCCC4)cc32)cc1 , what is it? 10.2

Then this compound: O=C(N/N=C/c1cccs1)c1ccncc1 94.5

Entry to check: CCCCOc1ccc(/C=N/NC(=O)c2ccncc2)cc1 98.1

Same again, this time with Oc1c(Cl)cc(Cl)cc1C(=S)Nc1ccccc1 33.0

Param item: CN1CCN(NC(=O)c2ccc(COc3ccc(Cl)cc3Cl)o2)CC1 32.3

# repeat for O=C(Nc1cccc(C(F)(F)F)c1)Nc1ccc(Cl)c(Cl)c1 10.8

O=[N+]([O-])c1cc2c(cc1/C=N/c1ccc(S(=O)(=O)Nc3nccs3)cc1)OCO2 , same question. 12.6

Moving on to O=C(N/N=C/c1ccc[nH]1)c1ccccn1 75.7

Next: O=C(Nc1cc(Cl)cc(Cl)c1)c1cc([N+](=O)[O-])ccc1Cl 54.8

Can you check Cc1ccc(NC(=O)c2c(NC(=O)c3ccccc3Cl)sc3c2CCC3)cc1 next? 14.0

// repeat for COc1cccc(C2Nc3ccc(C(=O)O)cc3C3C=CCC32)c1 (stereo not shown) and report 10.7

Now give it for C=CCn1c(Cc2ccccc2)nc2c(cnn2-c2ccccc2)c1=O too. −10.5
